Molecular target: JBP1 D525A (UniProt Q9U6M1 1-827, D525A)
Test: fluorescence anisotropy
Experimental Endpoint: Kd (µM)
Hi! Could you send only the number? It should be in µM, unit omitted.

Query string: So what's the measured Kd for this one? VSG T-DNA 14-mer (dsDNA) DNA 1: GGCAGCTGCAACAA DNA 2: TTGTTGCAGCTGCC
Result string: 11.7

All figures here come from paper PMC3141245.
